Reference for the values: paper PMC6212790

- target_entity: GST-Rok-C97-191 (Bacillus subtilis subsp. subtilis str. …, UniProt O34857 97-191)
- Sequence: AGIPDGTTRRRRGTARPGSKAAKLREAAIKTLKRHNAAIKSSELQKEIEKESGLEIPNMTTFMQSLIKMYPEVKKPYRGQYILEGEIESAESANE
- method_description: protein binding microarray; Rok is a gene silencer of Bacillus subtilis; high values mean tight binding
- measurement_context: protein: recombinant; tags: GST (pTH5325, pDEST15-Magic modified); dsDNA, one strand shown
Whole data set: some 33,000 sequences, median “e-score” near -0.038, cut for the highest 2% near 0.33. The list comes from a sample in which the highest values are over-represented; it also holds close analogues and randomly drawn sequences.
property_label: binding signal (E-score)
Answers are plain numbers, in E-score.

Examples with answers:
AATGTACA = 0.34
AATGTACG = 0.155
TATAAATA = 0.381

Quick batch: binding signal for everything below.
1. CATTAGTA
2. GACCCAAC

0.26
-0.142

Quick batch: binding signal for everything below.
1. CCAGTTGA
2. AGTGTACA
3. TATGTACA
4. GCCGAATA
5. TTAAAAAA
6. AATAGGGT
7. TGGCGAAA

1: -0.091; 2: 0.141; 3: 0.345; 4: 0.0948; 5: -0.0566; 6: 0.0409; 7: 0.0439

Quick batch: binding signal for everything below.
1. CCATCAGA
2. ATTCCGGG
3. AGATTAGC
4. AAGCGAGT
5. GATGTACA
6. CATGTACA

-0.0159
-0.0619
0.212
-0.052
0.29
0.317

Quick batch: binding signal for everything below.
1. AAAAGCAA
2. AATGTACT

0.148
0.296

Quick batch: binding signal for everything below.
1. CCAGGCCG
2. TAACGGTA

1. -0.0324
2. 0.278
